EXPERIMENT_DESCRIPTION: Cytotoxicity, CellTiter 96 assay in CEM cells
Format: cell-based, human
ASSAY_SETUP: human, T lymphoblast (CEM) cells
Give CC50 for every item shown.

Illustrative cases are given below, each with its answer.
>>> val("C#CCn1c(C)c(C(=O)C(=O)NC(C)(C)C#C)c(C)c1C(=O)Nc1ccc(F)c(F)c1 [Compound 10a]")
"> 100 µM"
>>> val("C#CCn1c(C)c(C(=O)C(=O)NC(C#C)(CC)CC)c(C)c1C(=O)Nc1ccc(F)c(F)c1 [Compound 10b]")
"76 µM"
>>> val("C#CC1(NC(=O)C(=O)c2c(C)c(C(=O)Nc3ccc(F)c(F)c3)n(C)c2C)CCC1 [Compound 9e]")
"> 100 µM"

Batch request: CC50 for each of the following molecules.
1. C#CCNC(=O)C(=O)c1c(C)c(C(=O)Nc2ccc(F)c(F)c2)n(CC#C)c1C [Compound 5g]
2. C#CC1(NC(=O)C(=O)c2c(C)c(C(=O)Nc3ccc(F)c(F)c3)n(C)c2C)CC1 [Compound 9d]
3. C#CCNC(=O)C(=O)c1c(C)c(C(=O)Nc2ccc(F)c(F)c2)n(Cc2ccccc2)c1C [Compound 5j]
4. C#CCNC(=O)C(=O)c1c(C)c(C(=O)Nc2ccc(F)c(F)c2)n(CC2CC2)c1C [Compound 5f]
5. C#CCNC(=O)C(=O)c1c(C)c(C(=O)Nc2ccc(F)c(F)c2)n(CCC)c1C [Compound 5b]
6. C#CCNC(=O)C(=O)c1c(C)c(C(=O)Nc2ccc(F)c(F)c2)n(CCCC)c1C [Compound 5c]
7. C#CC(C)(CC)NC(=O)C(=O)c1c(C)c(C(=O)Nc2ccc(F)c(F)c2)n(C)c1C (stereo not drawn) [Compound 9b]

> 100 µM
> 100 µM
> 100 µM
> 100 µM
> 100 µM
> 100 µM
10 µM

Batch request: CC50 for each of the following molecules.
1. C#CCNC(=O)C(=O)c1c(C)c(C(=O)Nc2ccc(F)c(F)c2)n(CC#CC)c1C [Compound 5h]
2. C#CC(CC)(CC)NC(=O)C(=O)c1c(C)c(C(=O)Nc2ccc(F)c(F)c2)n(C)c1C [Compound 9c]
3. C#CCNC(=O)C(=O)c1c(C)c(C(=O)Nc2ccc(F)c(F)c2)n(CC=C)c1C [Compound 5d]
4. C#CC(C)(C)NC(=O)C(=O)c1c(C)c(C(=O)Nc2ccc(F)c(F)c2)n(C)c1C [Compound 9a]
5. C#CCNC(=O)C(=O)c1c(C)c(C(=O)Nc2ccc(F)c(F)c2)n(CC#CCC)c1C [Compound 5i]
6. C#CC1(NC(=O)C(=O)c2c(C)c(C(=O)Nc3ccc(F)c(F)c3)n(C)c2C)CCCCC1 [Compound 9f]

["> 100 µM", "16 µM", "> 100 µM", "25 µM", "> 100 µM", "15 µM"]

Batch request: CC50 for each of the following molecules.
1. C#CCNC(=O)C(=O)c1c(C)c(C(=O)Nc2ccc(F)c(F)c2)n(CC)c1C [Compound 5a]
2. C#CCNC(=O)C(=O)c1c(C)c(C(=O)Nc2ccc(F)c(F)c2)n(C2CC2)c1C [Compound 5e]

1. > 100 µM
2. > 100 µM
